Where do these numbers come from? They come from BindingDB's records for doi:10.1074/jbc.M109.067967.

Molecular target: Plasminogen activator inhibitor 1 (Homo sapiens, UniProt P05121)
Experiment: Enzyme activity assay using human and murine PAI-1.
Conditions: pH 7.8
pIC50: −log10 of the molar value.
measured-attribute: pIC50

Would you please look over these solved cases?
{"molecule": "O=C(Oc1ccccc1OC(=O)c1cc(O)c(O)c(O)c1)c1cc(O)c(O)c(O)c1 [CDE-056]", "pIC50": 7.13}
{"molecule": "O=C(OCCOC(=O)c1cc(O)c(O)c(O)c1)c1cc(O)c(O)c(O)c1 [CDE-008]", "pIC50": 7.36}
{"molecule": "O=C(OCC1OC(OC(=O)c2cc(O)c(O)c(OC(=O)c3cc(O)c(O)c(O)c3)c2)C(OC(=O)c2cc(O)c(O)c(OC(=O)c3cc(O)c(O)c(O)c3)c2)C(OC(=O)c2cc(O)c(O)c(OC(=O)c3cc(O)c(O)c(O)c3)c2)C1OC(=O)c1cc(O)c(O)c(OC(=O)c2cc(O)c(O)c(O)c2)c1)c1cc(O)c(O)c(OC(=O)c2cc(O)c(O)c(O)c2)c1 (stereo unspecified) [Tannic Acid, A]", "pIC50": 8.18}
{"molecule": "O=C(O[C@H]1CCCC[C@H]1OC(=O)c1cc(O)c(O)c(O)c1)c1cc(O)c(O)c(O)c1 [CDE-031]", "pIC50": 7.70}

1. O=C(OCC(COC(=O)c1cc(O)c(O)c(O)c1)OC(=O)c1cc(O)c(O)c(O)c1)c1cc(O)c(O)c(O)c1 [CDE-082]
2. O=C(O[C@@H]1CCCC[C@H]1OC(=O)c1cc(O)c(O)c(O)c1)c1cc(O)c(O)c(O)c1 [CDE-034]
q: Dear colleague, could you let me know whether 1 or 2 has the lower recorded pIC50? Thanks. State the label of the item chosen.
a: 2
(2: 6.94, 1: 7.85)

---

Target: UniProt P05121
Assay: Enzymatic Assay
Details: pH 7.8; 23 °C
measured-attribute: IC50 (µM)

Would you please look over these solved cases?
{"molecule": "O=C(Oc1cc(O)cc2c1C[C@@H](OC(=O)c1cc(O)c(O)c(O)c1)[C@@H](c1cc(O)c(O)c(O)c1)O2)c1cc(O)c(O)c(O)c1 [Epigallocatechin-3,5-Digallate, C]", "test-result": 0.33}
{"molecule": "O=C(O[C@@H]1Cc2c(O)cc(O)cc2O[C@@H]1c1cc(O)c(O)c(O)c1)c1cc(O)c(O)c(O)c1 [(-)-Epigallocatechin-3-o-gallate]", "test-result": 0.091}
{"molecule": "O=C(O)c1cc(O)c(O)c(O)c1", "test-result": 6.6}
{"molecule": "Oc1c(Cl)cc(Cl)c(Cl)c1Cc1c(O)c(Cl)cc(Cl)c1Cl", "test-result": 3.8}
{"molecule": "O=C(OCC1OC(OC(=O)c2cc(O)c(O)c(OC(=O)c3cc(O)c(O)c(O)c3)c2)C(OC(=O)c2cc(O)c(O)c(OC(=O)c3cc(O)c(O)c(O)c3)c2)C(OC(=O)c2cc(O)c(O)c(OC(=O)c3cc(O)c(O)c(O)c3)c2)C1OC(=O)c1cc(O)c(O)c(OC(=O)c2cc(O)c(O)c(O)c2)c1)c1cc(O)c(O)c(OC(=O)c2cc(O)c(O)c(O)c2)c1 (configuration not stated)", "test-result": 0.007}

I. O=C(O)c1cc(O)c2c(c1)[C@H]([C@H]1c3cc(C(=O)O)cc(O)c3C(=O)c3c(O[C@@H]4O[C@H](CO)[C@@H](O)[C@H](O)[C@H]4O)cccc31)c1cccc(O[C@@H]3O[C@H](CO)[C@@H](O)[C@H](O)[C@H]3O)c1C2=O [Sennoside A, G]
II. O=C1c2ccc(O)c(O)c2C(=O)c2c(O)ccc(O)c21
q: Dear colleague, could you let me know whether I or II has the lower recorded IC50? Thanks. State the label of the item chosen.
a: II
